tested on: Carnobacterium divergens; assay: Ratio of Kcat to Km of Carnobacterium divergens BM4489 penicillinase Cad-1
Reported kcat/Km values follow for various compounds
Response body: numeric value in M⁻¹ s⁻¹, unit text excluded.

Reported kcat/Km for CCN1CCN(C(=O)N[C@@H](C(=O)N[C@@H]2C(=O)N3[C@@H]2SC(C)(C)[C@@H]3C(=O)O)c2ccccc2)C(=O)C1=O [PIPERACILLIN] : what is it? 914000

Entry to check: CC1(C)S[C@@H]2[C@H](NC(=O)[C@H](C(=O)O)c3ccsc3)C(=O)N2[C@H]1C(=O)O [TICARCILLIN] 330000

What about CC1(C)S[C@@H]2[C@H](NC(=O)[C@H](N)c3ccccc3)C(=O)N2[C@H]1C(=O)O [AMPICILLIN] ? 3.19e+06

---

tested on: Carnobacterium divergens; experiment: Activity of Carnobacterium divergens BM4489 penicillinase Cad-1 assessed as initial rate of hydrolysis by spectrophotometer
Decide using kcat alone. Strictly below 60 s⁻¹: fulfilled. Equal to or above 60 s⁻¹: not fulfilled.

Compound	Study target	Classification
O=C(Cc1cccs1)N[C@@H]1C(=O)N2C(C(=O)[O-])=C(C[n+]3ccccc3)CS[C@H]12	Carnobacterium divergens	fulfilled
CC1(C)S[C@@H]2[C@H](NC(=O)[C@H](N)c3ccccc3)C(=O)N2[C@H]1C(=O)O	Carnobacterium divergens	not fulfilled
Cc1onc(-c2ccccc2)c1C(=O)N[C@@H]1C(=O)N2[C@@H]1SC(C)(C)[C@@H]2C(=O)O	Carnobacterium divergens	not fulfilled
CC1(C)S[C@@H]2[C@H](NC(=O)C(C(=O)O)c3ccccc3)C(=O)N2[C@H]1C(=O)O (some centres not stated)	Carnobacterium divergens	fulfilled

Check if kcat falls below 60 s⁻¹ for `CC1(C)S[C@@H]2[C@H](NC(=O)[C@H](C(=O)O)c3ccsc3)C(=O)N2[C@H]1C(=O)O` . fulfilled

Record: `CC1(C)S[C@@H]2[C@H](NC(=O)Cc3ccccc3)C(=O)N2[C@H]1C(=O)O` not fulfilled

Here is the next compound: `CCN1CCN(C(=O)N[C@@H](C(=O)N[C@@H]2C(=O)N3[C@@H]2SC(C)(C)[C@@H]3C(=O)O)c2ccccc2)C(=O)C1=O` not fulfilled

---

Reported kcat/Km by item:
system: Carnobacterium divergens; test: Ratio of Kcat to Km of Carnobacterium divergens BM4489 penicillinase Cad-1 relative to benzyl-penicillin
Answer with a bare number; do not write a unit.

Guide cases for kcat/Km, answers given:
Compound	kcat/Km
CC1(C)S[C@@H]2[C@H](NC(=O)C(C(=O)O)c3ccccc3)C(=O)N2[C@H]1C(=O)O (stereo partly specified)	0.4
O=C(Cc1cccs1)N[C@@H]1C(=O)N2C(C(=O)[O-])=C(C[n+]3ccccc3)CS[C@H]12	0.3
Cc1onc(-c2ccccc2)c1C(=O)N[C@@H]1C(=O)N2[C@@H]1SC(C)(C)[C@@H]2C(=O)O	45
CCN1CCN(C(=O)N[C@@H](C(=O)N[C@@H]2C(=O)N3[C@@H]2SC(C)(C)[C@@H]3C(=O)O)c2ccccc2)C(=O)C1=O	14
CC1(C)S[C@@H]2[C@H](NC(=O)[C@H](C(=O)O)c3ccsc3)C(=O)N2[C@H]1C(=O)O	5

Please examine the following record next.
What measured kcat/Km is associated with `CC1(C)S[C@@H]2[C@H](NC(=O)[C@H](N)c3ccccc3)C(=O)N2[C@H]1C(=O)O` on Carnobacterium divergens? 48

---

tested on: Carnobacterium divergens; experiment: Activity of Carnobacterium divergens BM4489 penicillinase Cad-1 assessed as initial rate of hydrolysis by spectrophotometer
Readout: Km
Number first, unit second: that is the form wanted.

The following compounds have reported results that may help.
Compound	Km
CC1(C)S[C@@H]2[C@H](NC(=O)[C@H](N)c3ccccc3)C(=O)N2[C@H]1C(=O)O	48 µM
CC1(C)S[C@@H]2[C@H](NC(=O)[C@H](C(=O)O)c3ccsc3)C(=O)N2[C@H]1C(=O)O	106 µM
CC1(C)S[C@@H]2[C@H](NC(=O)C(C(=O)O)c3ccccc3)C(=O)N2[C@H]1C(=O)O (some centres not stated)	245 µM
CCN1CCN(C(=O)N[C@@H](C(=O)N[C@@H]2C(=O)N3[C@@H]2SC(C)(C)[C@@H]3C(=O)O)c2ccccc2)C(=O)C1=O	70 µM
CC1(C)S[C@@H]2[C@H](NC(=O)Cc3ccccc3)C(=O)N2[C@H]1C(=O)O	27 µM
Cc1onc(-c2ccccc2)c1C(=O)N[C@@H]1C(=O)N2[C@@H]1SC(C)(C)[C@@H]2C(=O)O	21 µM

Param readout = Km; param system = Carnobacterium divergens; param query = `O=C(Cc1cccs1)N[C@@H]1C(=O)N2C(C(=O)[O-])=C(C[n+]3ccccc3)CS[C@H]12` ; response: value 26 µM

---

system: Carnobacterium divergens; assay: Antimicrobial activity against Carnobacterium divergens BM4489 expressing beta-lactamase CAD1 at 0.5 McFarland inoculum size by E-test; assay type: functional
Readout: MIC (µg/mL)
Just the number in µg/mL, nothing appended.

Smiles input	Result number
CC1(C)S[C@@H]2[C@H](NC(=O)Cc3ccccc3)C(=O)N2[C@H]1C(=O)O	12

What value of measured MIC is listed for `CC1(C)S[C@@H]2[C@H](NC(=O)[C@H](C(=O)O)c3ccsc3)C(=O)N2[C@H]1C(=O)O` ? 32

---

system: Carnobacterium divergens; assay: Antimicrobial activity against Carnobacterium divergens BM4489 expressing beta-lactamase CAD1 at 0.5 McFarland inoculum size by E-test; format: functional
In this section we review reported MIC values for a set of compounds.
Kindly answer with a numeric value in µg/mL, unit omitted.

Worked examples follow.
Compound	Readout	Reading unit	Result number
CC1(C)S[C@@H]2[C@H](NC(=O)[C@H](N)c3ccccc3)C(=O)N2[C@H]1C(=O)O [AMPICILLIN]	MIC	µg/mL	3
C[C@@H](O)[C@H]1C(=O)N2C(C(=O)O)=C(SCCNC=N)C[C@H]12 [IMIPENEM ANHYDROUS]	MIC	µg/mL	0.19
CC1(C)S[C@@H]2[C@H](NC(=O)[C@H](N)c3ccc(O)cc3)C(=O)N2[C@H]1C(=O)O [AMOXICILLIN]	MIC	µg/mL	4
CCN1CCN(C(=O)N[C@@H](C(=O)N[C@@H]2C(=O)N3[C@@H]2SC(C)(C)[C@@H]3C(=O)O)c2ccccc2)C(=O)C1=O [PIPERACILLIN]	MIC	µg/mL	64

Consider the compound Cc1onc(-c2ccccc2)c1C(=O)N[C@@H]1C(=O)N2[C@@H]1SC(C)(C)[C@@H]2C(=O)O [OXACILLIN] and give its measured MIC. 24

---

Item-by-item account of pIC50
experiment: Inhibition of Carnobacterium divergens BM4489 penicillinase Cad-1
In plain terms, pIC50 is the concentration in mol/L turned into minus its base-10 logarithm.

Compound	pIC50
O=C(O)[C@H]1/C(=C/CO)O[C@@H]2CC(=O)N21 [CLAVULANIC ACID]	5.33
C[C@]1(Cn2ccnn2)[C@H](C(=O)O)N2C(=O)C[C@H]2S1(=O)=O [TAZOBACTAM]	6.57

Moving on to the next compound.
// returns reported pIC50 for input CC1(C)[C@H](C(=O)O)N2C(=O)C[C@H]2S1(=O)=O [SULBACTAM] 4.36
